Target: UniProt Q9Y6L6
Sequence (Q9Y6L6 1-691): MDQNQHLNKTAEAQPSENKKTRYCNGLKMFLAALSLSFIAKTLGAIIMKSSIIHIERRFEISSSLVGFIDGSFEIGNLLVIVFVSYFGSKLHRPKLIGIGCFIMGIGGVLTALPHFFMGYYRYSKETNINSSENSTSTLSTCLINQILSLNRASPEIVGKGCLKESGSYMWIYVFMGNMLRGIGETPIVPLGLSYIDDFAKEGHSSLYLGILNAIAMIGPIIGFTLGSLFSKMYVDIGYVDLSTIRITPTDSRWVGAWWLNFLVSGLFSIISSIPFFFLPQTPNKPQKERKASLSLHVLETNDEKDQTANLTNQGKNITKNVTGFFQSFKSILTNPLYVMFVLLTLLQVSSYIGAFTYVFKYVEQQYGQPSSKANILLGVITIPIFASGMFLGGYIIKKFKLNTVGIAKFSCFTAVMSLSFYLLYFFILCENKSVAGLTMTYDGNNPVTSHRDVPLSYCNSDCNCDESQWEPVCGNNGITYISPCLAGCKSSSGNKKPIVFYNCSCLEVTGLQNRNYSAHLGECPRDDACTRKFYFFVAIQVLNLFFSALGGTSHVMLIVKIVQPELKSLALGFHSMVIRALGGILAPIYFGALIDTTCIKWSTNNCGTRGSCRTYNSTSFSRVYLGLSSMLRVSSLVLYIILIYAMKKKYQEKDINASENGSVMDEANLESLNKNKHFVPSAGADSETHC
Assay: Drug uptake in X. laevis oocytes injected with SLCO1B1
Format: in vitro ADME
Conditions: OATP1B1 cRNA injected oocytes; without human serum albumin; 1 µM (darunavir 3 µM), 18°C, 1hr; mean ± SD
Consider the following compounds and their measured Drug uptake, OATP1B1 readings.
measuredQuantity: Drug uptake, OATP1B1 (pmol/oocyte)

[
  {
    "compound": "Cc1ccnc2c1NC(=O)c1cccnc1N2C1CC1",
    "obsValue": 2.26
  },
  {
    "compound": "CC(C)(C)NC(=O)[C@@H]1C[C@@H]2CCCC[C@@H]2CN1C[C@@H](O)[C@H](Cc1ccccc1)NC(=O)[C@H](CC(N)=O)NC(=O)c1ccc2ccccc2n1",
    "obsValue": 1.78
  },
  {
    "compound": "CC(C)CN(C[C@@H](O)[C@H](Cc1ccccc1)NC(=O)O[C@H]1CO[C@H]2OCC[C@H]21)S(=O)(=O)c1ccc(N)cc1",
    "obsValue": 4.13
  },
  {
    "compound": "O=C1Nc2ccc(Cl)cc2[C@@](C#CC2CC2)(C(F)(F)F)O1",
    "obsValue": 16.0
  },
  {
    "compound": "C[C@]12CC[C@@H]3c4ccc(OS(=O)(=O)O)cc4CC[C@H]3[C@@H]1CCC2=O [estrone-3-sulphate]",
    "obsValue": 0.51
  },
  {
    "compound": "Cc1cccc(C)c1OCC(=O)N[C@@H](Cc1ccccc1)[C@@H](O)C[C@H](Cc1ccccc1)NC(=O)[C@H](C(C)C)N1CCCNC1=O",
    "obsValue": 4.31
  }
]

Recorded values, source paper PMC4859410.
